Assay: protein stability index of a GFP-peptide fusion (GPS, HEK-293T) (PSI 1-6); higher = more stable;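 further: 24-mer peptide tiles fused after GFP, lentivirally expressed, FACS-sorted into six equal bins by GFP/DsRed ratio, decoded by Illumina sequencing, PSI is the read-weighted mean bin number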
Details: treatment: DMSO; c terminus: a fixed tail appended

# chain, protein stability index
rows = [
    ("FFAFEHSEEYQQAQHKFLVAVESM [TCF25]", 3.59),
    ("APKVNAVDTLNVKDIAPEKQLLNS [DLC1]", 4.88),
    ("TSSLFRTEPMAWNETADLGLDIGA [CTNNB1]", 3.71),
    ("YLHPNSYSCACLASGSVLRLVDAV [HDAC6]", 2.82),
    ("DRIATTDDTTAMASASSSATGSFS [MAGEA10]", 5.2),
]

These data points were gathered from the supplement of paper PMC10567573.
